- Subject Of Test: T1, HLA-A*03:01 (human, biotinylated heavy chain)
- T1 construct: Conditional HLA class I complex as for m1
- Assay Text: UV peptide exchange; HLA class I ELISA
Recorded Metric: exchange rate with Pos (%)
Field: numeric (%). Do not append units.

| Binder | exchange rate with Pos [%] |
| --- | --- |
| NMVENGCYL (Synthetic 9-mer) [P59 9-mer NMVENGCYL (FOXA1 F254V)] | 4.5 |
| IQYSCMGLM (Synthetic 9-mer) [P50 9-mer IQYSCMGLM (AR W742C)] | 5.5 |
| FPVGAEGTF (Synthetic 9-mer) [P27 9-mer FPVGAEGTF (FAM126B-ORC2 fusion)] | 4.5 |
| NSKMALNSL (Synthetic 9-mer) [P35 9-mer NSKMALNSL (TMPRSS2-ERG fusion)] | 4.2 |

Q: Recorded exchange rate with Pos of GVLRRLLCR (Synthetic 9-mer) [P37 9-mer GVLRRLLCR (TSTD1-F11R fusion)] , please.
A: 6.4

Q: Recorded exchange rate with Pos of STRRAVRRM (Synthetic 9-mer) [P16 9-mer STRRAVRRM (MSMB-NCOA4 fusion)] , please.
A: 6.1

Q: Recorded exchange rate with Pos of FFKRAAEGF (Synthetic 9-mer) [P77 9-mer FFKRAAEGF (AR-V3)] , please.
A: 2.8
